Cited source for all entries: ChEMBL document CHEMBL1201862

# targetOrSystem: Fatty acid synthase (Homo sapiens)
# Sequence (P49327 whole entry): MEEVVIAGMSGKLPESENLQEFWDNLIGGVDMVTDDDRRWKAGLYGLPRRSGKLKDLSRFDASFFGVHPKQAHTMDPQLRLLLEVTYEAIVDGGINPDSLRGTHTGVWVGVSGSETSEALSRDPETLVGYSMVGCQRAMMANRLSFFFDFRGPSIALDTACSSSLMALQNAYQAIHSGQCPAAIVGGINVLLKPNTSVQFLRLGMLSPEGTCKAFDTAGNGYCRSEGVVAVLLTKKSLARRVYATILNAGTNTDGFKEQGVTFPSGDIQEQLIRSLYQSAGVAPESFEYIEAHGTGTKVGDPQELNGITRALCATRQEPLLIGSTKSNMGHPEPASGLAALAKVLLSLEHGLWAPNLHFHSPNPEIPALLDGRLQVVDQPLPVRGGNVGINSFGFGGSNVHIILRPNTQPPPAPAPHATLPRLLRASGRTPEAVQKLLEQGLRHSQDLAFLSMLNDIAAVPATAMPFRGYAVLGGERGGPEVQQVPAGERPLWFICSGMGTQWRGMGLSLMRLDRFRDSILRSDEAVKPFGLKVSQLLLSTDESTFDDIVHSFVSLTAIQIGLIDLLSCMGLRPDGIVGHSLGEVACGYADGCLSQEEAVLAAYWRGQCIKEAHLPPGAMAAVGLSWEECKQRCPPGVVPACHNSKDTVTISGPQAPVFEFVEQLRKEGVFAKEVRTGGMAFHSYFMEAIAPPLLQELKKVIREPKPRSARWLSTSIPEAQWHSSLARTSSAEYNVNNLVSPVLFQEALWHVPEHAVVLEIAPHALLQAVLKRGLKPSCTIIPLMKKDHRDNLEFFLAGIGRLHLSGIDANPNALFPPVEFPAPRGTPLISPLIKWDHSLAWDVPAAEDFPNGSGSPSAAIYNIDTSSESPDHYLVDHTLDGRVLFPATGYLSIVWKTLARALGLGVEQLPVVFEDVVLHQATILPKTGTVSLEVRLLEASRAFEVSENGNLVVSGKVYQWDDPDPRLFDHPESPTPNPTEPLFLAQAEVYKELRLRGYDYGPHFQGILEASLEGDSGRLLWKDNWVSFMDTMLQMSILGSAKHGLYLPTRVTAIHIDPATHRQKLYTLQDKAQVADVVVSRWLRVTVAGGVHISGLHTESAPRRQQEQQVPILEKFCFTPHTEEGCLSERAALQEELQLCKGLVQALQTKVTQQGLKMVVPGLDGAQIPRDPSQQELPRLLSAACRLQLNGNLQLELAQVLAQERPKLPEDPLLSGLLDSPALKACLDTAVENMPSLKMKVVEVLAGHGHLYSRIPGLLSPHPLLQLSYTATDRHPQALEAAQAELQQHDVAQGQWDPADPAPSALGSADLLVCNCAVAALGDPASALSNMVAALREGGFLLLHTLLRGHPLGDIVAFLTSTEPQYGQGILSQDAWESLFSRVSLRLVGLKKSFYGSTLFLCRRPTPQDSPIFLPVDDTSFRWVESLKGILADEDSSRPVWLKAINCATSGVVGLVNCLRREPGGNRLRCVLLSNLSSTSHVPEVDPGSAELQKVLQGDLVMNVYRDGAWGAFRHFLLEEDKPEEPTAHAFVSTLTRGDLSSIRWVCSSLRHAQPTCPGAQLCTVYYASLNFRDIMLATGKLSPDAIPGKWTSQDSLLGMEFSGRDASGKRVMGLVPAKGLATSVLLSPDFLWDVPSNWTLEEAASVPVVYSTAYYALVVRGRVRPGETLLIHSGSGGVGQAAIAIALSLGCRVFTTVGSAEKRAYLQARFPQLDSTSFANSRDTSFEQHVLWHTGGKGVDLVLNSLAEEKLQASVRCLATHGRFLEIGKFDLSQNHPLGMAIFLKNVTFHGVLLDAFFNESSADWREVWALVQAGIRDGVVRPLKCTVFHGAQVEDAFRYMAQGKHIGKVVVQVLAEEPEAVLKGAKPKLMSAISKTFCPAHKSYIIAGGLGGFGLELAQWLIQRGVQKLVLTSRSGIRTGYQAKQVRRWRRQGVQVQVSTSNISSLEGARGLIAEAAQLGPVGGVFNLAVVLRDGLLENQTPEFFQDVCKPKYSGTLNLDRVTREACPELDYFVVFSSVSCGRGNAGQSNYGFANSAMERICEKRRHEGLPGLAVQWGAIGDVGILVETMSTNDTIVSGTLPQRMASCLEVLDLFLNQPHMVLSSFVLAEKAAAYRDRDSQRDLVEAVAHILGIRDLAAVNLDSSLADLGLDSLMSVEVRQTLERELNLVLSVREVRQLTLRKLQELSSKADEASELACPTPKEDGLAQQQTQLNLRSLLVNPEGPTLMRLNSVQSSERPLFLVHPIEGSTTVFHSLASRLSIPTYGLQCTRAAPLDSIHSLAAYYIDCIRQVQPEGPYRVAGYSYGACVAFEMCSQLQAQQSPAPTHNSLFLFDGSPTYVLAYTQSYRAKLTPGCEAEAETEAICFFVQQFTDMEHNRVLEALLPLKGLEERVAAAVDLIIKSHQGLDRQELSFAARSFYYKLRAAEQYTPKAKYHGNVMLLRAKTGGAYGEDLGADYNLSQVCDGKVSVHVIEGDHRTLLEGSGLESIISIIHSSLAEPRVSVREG
# testProtocol: inhibition of human FAS-TE enzyme activity – biochemical, kinetic fluorescence intensity, dose response (AID 624326);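 also: rate of fluorescence rise from hydrolysis of a fluorogenic O-methyl fluorescein ester substrate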
# Type: functional
Calls of active or inactive are those of the source.
Hi! Could you answer with just one of these? active, inactive

Record lookup: outcome of this test for COc1cc(CCc2ccccc2)c(C(=O)O)c(O)c1C/C=C(/C)CCC=C(C)C ?
active

Also CCOC(=O)[C@@H]1[C@H]2COc3ccc(Br)cc3[C@@H]2N2C(=O)N(c3cccc(Cl)c3)C(=O)[C@@]12C ?
active

Also CN(C)CCNc1nc2sc3c(c2c(=O)n1CCc1ccccc1)CCCCC3 ?
active

Also CCC(C)NC(=O)CSc1nc2c(sc(=S)n2Cc2ccco2)c(=O)n1-c1ccccc1 (stereo unspecified) ?
inactive

Also COc1ccc(C(=O)N/C(=C\c2cn(S(=O)(=O)N(C)C)c3ccccc23)C(=O)N2CCOCC2)cc1 ?
active

Also CCCCCc1nc2sc3c(c2c(=O)n1NC(=O)c1ccc([N+](=O)[O-])cc1)CC(C)(C)OC3 ?
active

Also O=C(Nc1c(C(=O)N2CCOCC2)cnn1-c1ccccc1)c1ccc([N+](=O)[O-])cc1 ?
active

Also Cc1ccc(S(=O)(=O)Nc2cccc(-c3ccc(N4CCCCCC4)nn3)c2)c(C)c1 ?
active

Also CCc1cccc(C)c1NC(=O)COC(=O)c1cc([N+](=O)[O-])ccc1N1CCOCC1 ?
active

Also O=C(CNc1cc(S(=O)(=O)N2CCCC2)ccc1OCC(F)(F)F)Nc1ccc(SC(F)F)cc1 ?
active

New cases:
Record lookup: outcome of this test for O=C(/C=C/c1cccc([N+](=O)[O-])c1)N1CCN(S(=O)(=O)c2cccs2)CC1 ?
active

* * *

Catalogue of IC50 values
# testProtocol: cells
# Format: functional
The source made the active and inactive calls.

Some solved entries appear below for comparison.
Which value of IC50 has been reported for CCOc1ccc(NC(=O)COC(=O)C2(C)CC2(Cl)Cl)c([N+](=O)[O-])c1 (stereo unspecified) in the records?
38.4 µM (active)

Also O=C1NC(=O)C(=Cc2ccc(Oc3ccc([N+](=O)[O-])cc3)cc2)C(=O)N1 ?
43 µM (active)

Also O=C(CCc1ccccc1)NC1C2CC3CC(C2)CC1C3 (stereo unspecified) ?
18.6 µM (active)

Also COc1cc(/N=c2\ssnc2Cl)cc(OC)c1OC ?
43.6 µM (active)

Also Cc1ccc(/C(O)=C/c2nc3ccccc3oc2=O)cc1 ?
4.72 µM (active)

Continue with the compound presented below.
Which value of IC50 has been reported for COc1cccc(C(=O)Nc2nnc(-c3ccc(F)cc3)o2)c1 in the records?
1.03 µM (active)

* * *

# testProtocol: viability loss in HEK293 cells – cell-based, plate reader, cherry-picked samples, cytotoxicity control, dose response (AID 743446)
# Assay type: functional
Calls of active or inactive are those of the source.
Hi! Could you answer with just one of these? t for active, f for inactive

Solved entries (count: 3):
Record lookup: outcome of this test for C[C@H]1CN([C@@H](C)CO)S(=O)(=O)c2ccc(C#CC(C)(C)O)cc2O[C@@H]1CN(C)Cc1ccc(-c2ccccc2)cc1 ?
t

Also Cc1cccc(-c2ccc([C@H]3[C@@H](CO)N4CCCCN(C(=O)c5cccnc5)C[C@@H]34)cc2)c1 ?
f

Also CC(C)(C)c1ccc(-n2nc(C#N)c(Cl)cc2=O)cc1 ?
t

Below: the item to evaluate.
Record lookup: outcome of this test for O=C(C1CC1)N1C[C@@H]2N[C@H](C1)[C@@H]2c1ccc(-c2cccc(F)c2)cc1 ?
t
